tested on: PCSK9 gene; assay: PCSK9 gRNA/SpCas9 editing in primary human hepatocytes (Tables 2, 4); type: cell-based; details: 500 ng/RNA/mL; SpCas9 mRNA MS002 1:1 by weight
m = 2'-O-methyl; r = 2'-OH (RNA)
Form field: Human Primary Hepatocyte Editing % 500 (one value per entry).
readoutType: Human Primary Hepatocyte Editing % 500 (%)

[
  {
    "molecule": "GA202: PCSK9 gRNA; protospacer AAGCGGGTCCCGTCCTCCTC (SEQ ID NO: 196) (nucleic acid, sugars from the 5' end m3 r94 m3, linkages s3 o93 s3 (s phosphorothioate, o phosphodiester), T or U not given here) guide: AAGCGGGUCCCGUCCUCCUCGUUUUAGAGCUAGAAAUAGCAAGUUAAAAUAAGGCUAGUCCGUUAUCAACUUGAAAAAGUGGCACCGAGUCGGUGCUUUU",
    "unitInfo": "%",
    "observedValue": 10.75
  },
  {
    "molecule": "GA212: PCSK9 gRNA; protospacer CGGGATGCCGGCGTGGCCAA (SEQ ID NO: 206) (nucleic acid, sugars from the 5' end m3 r94 m3, linkages s3 o93 s3 (s phosphorothioate, o phosphodiester), T or U not given here) guide: CGGGAUGCCGGCGUGGCCAAGUUUUAGAGCUAGAAAUAGCAAGUUAAAAUAAGGCUAGUCCGUUAUCAACUUGAAAAAGUGGCACCGAGUCGGUGCUUUU",
    "unitInfo": "%",
    "observedValue": 5.59
  },
  {
    "molecule": "GA223: PCSK9 gRNA; protospacer GCTGACCACCCCTGCCAGGT (SEQ ID NO: 217) (nucleic acid, sugars from the 5' end m3 r94 m3, linkages s3 o93 s3 (s phosphorothioate, o phosphodiester), T or U not given here) guide: GCUGACCACCCCUGCCAGGUGUUUUAGAGCUAGAAAUAGCAAGUUAAAAUAAGGCUAGUCCGUUAUCAACUUGAAAAAGUGGCACCGAGUCGGUGCUUUU",
    "unitInfo": "%",
    "observedValue": 7.28
  }
]
